test system: SW620 human colorectal cancer cells; assay: MTT based cell viability assay: potentiation of the growth inhibiting activity of MMS; conditions: Homo sapiens, SW-620, 120 h, read-out: IC50 (nM), potentiation of the growth inhibiting activity of MMS, SW620 cells, 1.7 μg/ml MMS, 5 days (120 hours), MTT
So I've got a bunch of compounds here, and I need their IC50 values.
One number for each entry, in nM.

O=C(c1ccc(F)c(Cn2c(=O)[nH]c(=O)c3c(Cl)cccc32)c1)N1CCN(c2ccccn2)CC1 = 228
O=C(c1cccc(Cn2c(=O)[nH]c(=O)c3c(F)cccc32)c1)N1CCN(C(=O)C2CCCCC2)CC1 = 18
O=C(c1ccc(Cn2c(=O)[nH]c(=O)c3ccccc32)o1)N1CCN(c2nsc3ccccc23)CC1 = 673

Look up IC50 for the entries below, preserving their order.
1. O=C(c1cccc(Cn2c(=O)[nH]c(=O)c3cc(F)ccc32)c1)N1CCN(C(=O)C2CCCCC2)CC1
2. O=C(c1cccc(Cn2c(=O)[nH]c(=O)c3ccccc32)c1)N1CCN(c2nccs2)CC1
3. O=C(c1cccc(Cn2c(=O)[nH]c(=O)c3ccccc32)c1)N1CCN(c2ccccn2)CC1
4. O=C(c1cccc(Cn2c(=O)[nH]c(=O)c3ccccc32)c1)N1CCN(C(=O)C2CCC2)CC1

22
80
90
119

Values were extracted from patent US9926304B2.
